target: Aurora B kinase (Homo sapiens, UniProt Q96GD4)
Sequence (Q96GD4 whole entry): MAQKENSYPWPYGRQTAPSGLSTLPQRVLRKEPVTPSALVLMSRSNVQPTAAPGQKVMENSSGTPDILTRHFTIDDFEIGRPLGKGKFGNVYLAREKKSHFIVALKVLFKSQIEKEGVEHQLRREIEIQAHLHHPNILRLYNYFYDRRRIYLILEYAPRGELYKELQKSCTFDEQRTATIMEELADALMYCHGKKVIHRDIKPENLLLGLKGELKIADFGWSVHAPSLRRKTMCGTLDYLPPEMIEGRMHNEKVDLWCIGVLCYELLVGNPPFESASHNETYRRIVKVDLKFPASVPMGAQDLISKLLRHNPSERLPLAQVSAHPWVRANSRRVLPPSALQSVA
Lab note: compare IC50 with 20 nM, writing Condition met if less and Condition not met if equal or more.

hey, is IC50 for COc1ccnc(/C(C(N)=O)=C2/Nc3ccc(CN4CCOCC4)cc3S2)n1 [Compound 92A] lower than 20 nM or not?
Condition not met

Find out if reported IC50 for NC(=O)/C(=C1\Nc2ccc(NC(=O)CCn3ccnc3)cc2N1)c1nccc(C(F)(F)F)n1 [Compound 87A] is less than 20 nM
Condition met

Dear colleague, could you confirm whether IC50 of NC(=O)/C(=C1\Nc2ccc(Oc3cccnc3)cc2S1)c1nccc(C(F)(F)F)n1 [Compound 118A] falls below 20 nM? Thanks.
Condition met

Decide: IC50 of NC(=O)/C(=C1\Nc2ccc(CCN3CCSCC3)cc2S1)c1nccc(C(F)(F)F)n1 [Compound 103A] strictly below 20 nM?
Condition met

Please check: IC50 for NCCNC(=O)c1ccc2c(c1)S/C(=C(/C(N)=O)c1nccc(C(F)(F)F)n1)N2 [Compound 63A] , strictly under 20 nM or not?
Condition not met

IC50 strictly < 20 nM for this compound? Cc1cc(C(F)(F)F)nc(C(C(N)=O)=C2Nc3ccc(NC(=O)[C@@H]4CCCN4C)cc3N2)n1 (single isomer, unassigned) [Compound 144A]
Condition met

Determine if CN1CCN(CCC(=O)Nc2ccc3c(c2)N/C(=C(/C(N)=O)c2nccc(C(F)(F)F)n2)N3)CC1 [Compound 83A] shows IC50 strictly lower than 20 nM.
Condition met

Is IC50 strictly under 20 nM for the entry NC(=O)/C(=C1\Nc2ccc(-c3ccccn3)cc2N1)c1nccc(C(F)(F)F)n1 [Compound 109A] ?
Condition met

Does NC(=O)/C(=C1\Nc2cccc(C(=O)NCCCN3CCOCC3)c2S1)c1nccc(C(F)(F)F)n1 [Compound 52A] have IC50 strictly under 20 nM?
Condition not met

Bench note: check whether NC(=O)/C(=C1\Nc2ccc(CCO)cc2N1)c1nccc(C(F)(F)F)n1 [Compound 105A] shows IC50 below 20 nM
Condition met

Does NC(=O)/C(=C1\Nc2ccc(C(=O)N3CC[C@@H](N)C3)cc2S1)c1nccc(C(F)(F)F)n1 [Compound 69A] have IC50 strictly under 20 nM?
Condition not met

Lab note: confirm whether the reported IC50 for this compound is below 20 nM, equality not counting. compound: NC(=O)/C(=C1\Nc2ccc(NC(=O)C3CC3)cc2N1)c1nccc(C(F)(F)F)n1 [Compound 33A]
Condition met

Is 20 nM strictly greater than the compound's reported IC50? compound: NC(=O)/C(=C1\Nc2ccc(S(=O)(=O)NCCCN3CCOCC3)cc2S1)c1nccc(C(F)(F)F)n1 [Compound 127A]
Condition met

Is IC50 strictly under 20 nM for the entry NC(=O)/C(=C1\Nc2ccc(CN3CCNCC3)cc2S1)c1nccc(C(F)(F)F)n1 [Compound 94A] ?
Condition met

Decide: IC50 of CCN(CCCn1ccnc1)C(=O)c1ccc2c(c1)N/C(=C(/C(N)=O)c1nccc(C(F)(F)F)n1)N2 [Compound 48A] strictly below 20 nM?
Condition met

* * *

Measured parameter: log10(IC50) (log10 of the value in µM)
The base-10 logarithm of IC50, taken with IC50 in µM, is what appears here.

Reported log10(IC50) (Aurora A kinase (Homo sapiens, UniProt O14965)) for entry Cc1cc(C(F)(F)F)nc(C(C(N)=O)=C2Nc3ccccc3N2)n1 [Compound 138A] is -2.10

log10(IC50) value, target or system Aurora A kinase (Homo sapiens, UniProt O14965), for NC(=O)/C(=C1\Nc2ccc(C(=O)Nc3ccncc3)cc2N1)c1nccc(C(F)(F)F)n1 [Compound 44A] : -2.00

Measured on Aurora A kinase (Homo sapiens, UniProt O14965), NC(=O)C(=C1Nc2ccc(OCCn3ccnc3)cc2S1)c1nccc(C(F)(F)F)n1 (single isomer, unassigned) [Compound 117A] has a documented log10(IC50) of -2.00

log10(IC50) of CCN(C(=O)[C@@H]1CCCN1C)c1ccc2c(c1)N/C(=C(/C(N)=O)c1nccc(C(F)(F)F)n1)N2 [Compound 145A] , assay on Aurora A kinase (Homo sapiens, UniProt O14965), is -1.70

Entry NC(=O)/C(=C1\Nc2ccc(C(=O)N3CC[C@@H](N)C3)cc2N1)c1nccc(C(F)(F)F)n1 [Compound 68A] ; assay system Aurora A kinase (Homo sapiens, UniProt O14965); log10(IC50) recorded at -2.00

Field log10(IC50) (system: Aurora A kinase (Homo sapiens, UniProt O14965)) for entry NC(=O)/C(=C1\Nc2cc(F)c(Cl)cc2N1)c1nccc(C(F)(F)F)n1 [Compound 37A] = -1.52

NC(=O)/C(=C1\Nc2cc(OCCN3CCOCC3)ccc2S1)c1nccc(C(F)(F)F)n1 [Compound 112A] tested on Aurora A kinase (Homo sapiens, UniProt O14965) gave log10(IC50): -1.70

Form field, log10(IC50) with Aurora A kinase (Homo sapiens, UniProt O14965), item COC(=O)c1ccc2c(c1)N/C(=C(/C(N)=O)c1nccc(C(F)(F)F)n1)N2 [Compound 29A] : -1.52

Form field, log10(IC50) with Aurora A kinase (Homo sapiens, UniProt O14965), item CN1CCN(CCOc2ccc3c(c2)S/C(=C(/C(N)=O)c2nccc(C(F)(F)F)n2)N3)CC1 [Compound 114A] : -1.40

Reported log10(IC50) (Aurora A kinase (Homo sapiens, UniProt O14965)) for entry NC(=O)/C(=C1\Nc2ccc(C(=O)N3CCNCC3)cc2S1)c1nccc(C(F)(F)F)n1 [Compound 61A] is -1.70

Record NC(=O)/C(=C1\Nc2ccc(S(=O)(=O)N3CCNCC3)cc2S1)c1nccc(C(F)(F)F)n1 [Compound 129A] has Aurora A kinase (Homo sapiens, UniProt O14965) log10(IC50) equal to -1.52

Observed log10(IC50), Aurora A kinase (Homo sapiens, UniProt O14965), NC(=O)/C(=C1\Nc2cc(F)c(C(=O)NCCCN3CCOCC3)cc2S1)c1nccc(C(F)(F)F)n1 [Compound 50A] : -1.70

Entry NC(=O)/C(=C1\Nc2ccccc2S1)c1nc(C(F)(F)F)cc(C(F)(F)F)n1 [Compound 9A] , tested on Aurora A kinase (Homo sapiens, UniProt O14965), has a reported log10(IC50) of -2.00

Noted log10(IC50) for NC(=O)/C(=C1\Nc2ccc(CCN3CCC(F)(F)CC3)cc2S1)c1nccc(C(F)(F)F)n1 [Compound 104A] , tested on Aurora A kinase (Homo sapiens, UniProt O14965): -1.52

// returns log10(IC50) for NC(=O)/C(=C1\Nc2ccc(CO)cc2N1)c1nccc(C(F)(F)F)n1 [Compound 35A] with Aurora A kinase (Homo sapiens, UniProt O14965); value = -2.05

Observed log10(IC50) on Aurora A kinase (Homo sapiens, UniProt O14965), entry NC(=O)/C(=C1\Nc2ccc(N3CCC(N4CCOCC4)CC3)cc2S1)c1nccc(C(F)(F)F)n1 [Compound 122A] , equals -1.70

# CCN1CCN(CCCNC(=O)c2ccc3c(c2)N/C(=C(/C(N)=O)c2nccc(C(F)(F)F)n2)N3)CC1 [Compound 55A] with Aurora A kinase (Homo sapiens, UniProt O14965): log10(IC50) is -1.70

Log: Aurora A kinase (Homo sapiens, UniProt O14965), compound NC(=O)C(=C1Nc2ccc(C(=O)NCCCN3CCOCC3)cc2N1)c1nccc(C(F)(F)F)n1 (single isomer, unassigned) [Compound 39A] , log10(IC50) = -2.00

Reported log10(IC50) (Aurora A kinase (Homo sapiens, UniProt O14965)) for entry NC(=O)/C(=C1\Nc2ccc(C(=O)O)cc2N1)c1nccc(C(F)(F)F)n1 [Compound 28A] is -2.30

Aurora A kinase (Homo sapiens, UniProt O14965) log10(IC50) of NC(=O)/C(=C1\Nc2ccc(OCCN3CCOCC3)cc2S1)c1nccc(C(F)(F)F)n1 [Compound 111A] is -1.70

Entry CN1CCN(C(=O)c2ccc3c(c2)N/C(=C(/C(N)=O)c2nccc(C(F)(F)F)n2)N3)CC1 [Compound 58A] : log10(IC50) on Aurora A kinase (Homo sapiens, UniProt O14965) = -2.05

log10(IC50) for Aurora A kinase (Homo sapiens, UniProt O14965) with input CN1CCCC[C@@H]1C(=O)Nc1ccc2c(c1)N/C(=C(/C(N)=O)c1nccc(C(F)(F)F)n1)N2 [Compound 143A] equals -2.40

Form field log10(IC50) for item NC(=O)/C(=C1\Nc2ccccc2S1)c1nc(-c2cccnc2)cc(C(F)(F)F)n1 [Compound 10A] on Aurora A kinase (Homo sapiens, UniProt O14965): -2.00

Fill in: Aurora A kinase (Homo sapiens, UniProt O14965) log10(IC50) for Cc1cc(C)nc(/C(C(N)=O)=C2/Nc3ccccc3S2)n1 [Compound 22A] = -1.10
